I'd appreciate it if you could supply ΦHEPES (%) values for the items below.
experiment: Absorption and photoluminescence (quantum yield, lifetime, q); assay type: physicochemical; details: luminescence quantum yield, 0.1M HEPES buffer, pH 7.4
Kindly answer with a numeric value in %, unit omitted.

Task: Recorded ΦHEPES (%) for CC[C@H]1CN(CC(=O)[O-])[C@@H](CC)CN(Cc2cc(C#Cc3c(OC)cc(OC)cc3OC)cc(P(C)(=O)[O-])n2)[C@@H](CC)CN(CC(=O)[O-])[C@@H](CC)CN1CC(=O)[O-].[Eu+3] , please?
Result: 14.0

Task: Recorded ΦHEPES (%) for COc1cc(OC)c(C#Cc2cc(CN3CCN(CC(=O)[O-])CCN(CC(=O)[O-])CCN(CC(=O)[O-])CC3)nc(P(C)(=O)[O-])c2)c(OC)c1.[Eu+3] , please?
Result: 6.9

Task: Recorded ΦHEPES (%) for CCC1CN(C(C)C(=O)[O-])C(CC)CN(C(C)C(=O)[O-])C(CC)CN(C(C)C(=O)[O-])C(CC)CN1Cc1cc(C#Cc2c(OC)cc(OC)cc2OC)cc(P(C)(=O)[O-])n1.[Eu+3] (stereo not shown) , please?
Result: 20.9

Task: Recorded ΦHEPES (%) for CC[C@@H]1CN(CC(=O)[O-])[C@H](CC)CN(Cc2cc(C#Cc3c(OC)cc(OC)cc3OC)cc(P(C)(=O)[O-])n2)[C@H](CC)CN(CC(=O)[O-])[C@H](CC)CN1CC(=O)[O-].[Eu+3] , please?
Result: 14.3

---

Experiment: Circularly polarized luminescence (CPL), dissymmetry factor glum
Type: physicochemical
Conditions: DMSO; wavelength in parentheses in the cell
Protocol: Steady-state room temperature photoluminescence measurements were performed with an Edinburgh Instrument FLSP920 spectrophotometer equipped with a Xe900 continuous xenon lamp, μF920 microsecond flash lamp and a single photon counting photomultiplier tube. Spectra were corrected with the bundled F900 software. […] Spectra were recorded using a 5 spectral average sequence in the range of 570-720 nm with 0.5 nm spectral intervals and 500 μs integration time.
OBSERVED PROPERTY: glum ΔJ = 3 (λ) DMSO

Task: Recorded glum ΔJ = 3 (λ) DMSO for CC[C@@H]1CN(CC(=O)[O-])[C@H](CC)CN(Cc2cc(C#Cc3c(OC)cc(OC)cc3OC)cc(P(C)(=O)[O-])n2)[C@H](CC)CN(CC(=O)[O-])[C@H](CC)CN1CC(=O)[O-].[Eu+3] , please?
Result: +0.13 (657)

Task: Recorded glum ΔJ = 3 (λ) DMSO for CCC1CN(C(C)C(=O)[O-])C(CC)CN(C(C)C(=O)[O-])C(CC)CN(C(C)C(=O)[O-])C(CC)CN1Cc1cc(C#Cc2c(OC)cc(OC)cc2OC)cc(P(C)(=O)[O-])n1.[Eu+3] (centres unmarked) , please?
Result: −0.29 (657)

Task: Recorded glum ΔJ = 3 (λ) DMSO for COc1cc(OC)c(C#Cc2cc(CN3C[C@H](CC(C)C)N(CC(=O)[O-])C[C@H](CC(C)C)N(CC(=O)[O-])C[C@H](CC(C)C)N(CC(=O)[O-])C[C@@H]3CC(C)C)nc(P(C)(=O)[O-])c2)c(OC)c1.[Eu+3] , please?
Result: −0.12 (657)

Task: Recorded glum ΔJ = 3 (λ) DMSO for CC[C@H]1CN(CC(=O)[O-])[C@@H](CC)CN(Cc2cc(C#Cc3c(OC)cc(OC)cc3OC)cc(P(C)(=O)[O-])n2)[C@@H](CC)CN(CC(=O)[O-])[C@@H](CC)CN1CC(=O)[O-].[Eu+3] , please?
Result: +0.17 (657)

Task: Recorded glum ΔJ = 3 (λ) DMSO for COc1cc(OC)c(C#Cc2cc(CN3CC(Cc4ccccc4)N(CC(=O)[O-])CC(Cc4ccccc4)N(CC(=O)[O-])CC(Cc4ccccc4)N(CC(=O)[O-])CC3Cc3ccccc3)nc(P(C)(=O)[O-])c2)c(OC)c1.[Eu+3] (centres unmarked) , please?
Result: +0.25 (657)

---

test: Absorption and photoluminescence (quantum yield, lifetime, q); type: physicochemical; details: luminescence lifetime, 5D0 → 7F2 transition; D2O (MeOD for 10)
I'd appreciate it if you could supply τD2O/MeOD values for the items below.
Kindly answer with a numeric value in ms, unit omitted.

Task: Recorded τD2O/MeOD for CC[C@@H]1CN(CC(=O)[O-])[C@H](CC)CN(Cc2cc(C#Cc3c(OC)cc(OC)cc3OC)cc(P(C)(=O)[O-])n2)[C@H](CC)CN(CC(=O)[O-])[C@H](CC)CN1CC(=O)[O-].[Eu+3] , please?
Result: 1.77

Task: Recorded τD2O/MeOD for COc1cc(OC)c(C#Cc2cc(CN3CCN(CC(=O)[O-])CCN(CC(=O)[O-])CCN(CC(=O)[O-])CC3)nc(P(C)(=O)[O-])c2)c(OC)c1.[Eu+3] , please?
Result: 1.44

Task: Recorded τD2O/MeOD for COc1cc(OC)c(C#Cc2cc(CN3C[C@H](CC(C)C)N(CC(=O)[O-])C[C@H](CC(C)C)N(CC(=O)[O-])C[C@H](CC(C)C)N(CC(=O)[O-])C[C@@H]3CC(C)C)nc(P(C)(=O)[O-])c2)c(OC)c1.[Eu+3] , please?
Result: 1.74

Task: Recorded τD2O/MeOD for CCC1CN(C(C)C(=O)[O-])C(CC)CN(C(C)C(=O)[O-])C(CC)CN(C(C)C(=O)[O-])C(CC)CN1Cc1cc(C#Cc2c(OC)cc(OC)cc2OC)cc(P(C)(=O)[O-])n1.[Eu+3] (centres unmarked) , please?
Result: 1.83

Task: Recorded τD2O/MeOD for CC[C@H]1CN(CC(=O)[O-])[C@@H](CC)CN(Cc2cc(C#Cc3c(OC)cc(OC)cc3OC)cc(P(C)(=O)[O-])n2)[C@@H](CC)CN(CC(=O)[O-])[C@@H](CC)CN1CC(=O)[O-].[Eu+3] , please?
Result: 1.76

---

assay: Absorption and photoluminescence (quantum yield, lifetime, q); type: physicochemical; details: sensitization efficiency, calculated according to ref 61
OBSERVED PROPERTY: ηsens (%)
Kindly answer with a numeric value in %, unit omitted.

Task: Recorded ηsens (%) for COc1cc(OC)c(C#Cc2cc(CN3CCN(CC(=O)[O-])CCN(CC(=O)[O-])CCN(CC(=O)[O-])CC3)nc(P(C)(=O)[O-])c2)c(OC)c1.[Eu+3] [Complex 7] , please?
Result: 32.3

Task: Recorded ηsens (%) for COc1cc(OC)c(C#Cc2cc(CN3C[C@H](CC(C)C)N(CC(=O)[O-])C[C@H](CC(C)C)N(CC(=O)[O-])C[C@H](CC(C)C)N(CC(=O)[O-])C[C@@H]3CC(C)C)nc(P(C)(=O)[O-])c2)c(OC)c1.[Eu+3] [Complex 10] , please?
Result: 30.1

Task: Recorded ηsens (%) for CC[C@@H]1CN(CC(=O)[O-])[C@H](CC)CN(Cc2cc(C#Cc3c(OC)cc(OC)cc3OC)cc(P(C)(=O)[O-])n2)[C@H](CC)CN(CC(=O)[O-])[C@H](CC)CN1CC(=O)[O-].[Eu+3] [Complex 9] , please?
Result: 53.0

Task: Recorded ηsens (%) for CC[C@H]1CN(CC(=O)[O-])[C@@H](CC)CN(Cc2cc(C#Cc3c(OC)cc(OC)cc3OC)cc(P(C)(=O)[O-])n2)[C@@H](CC)CN(CC(=O)[O-])[C@@H](CC)CN1CC(=O)[O-].[Eu+3] [Complex 8] , please?
Result: 53.8

Task: Recorded ηsens (%) for CCC1CN(C(C)C(=O)[O-])C(CC)CN(C(C)C(=O)[O-])C(CC)CN(C(C)C(=O)[O-])C(CC)CN1Cc1cc(C#Cc2c(OC)cc(OC)cc2OC)cc(P(C)(=O)[O-])n1.[Eu+3] (centres unmarked) [Complex 13] , please?
Result: 72.6

---

test: Absorption and photoluminescence (quantum yield, lifetime, q); assay type: physicochemical; parameters: unit not given here; details: room temperature; 10 measured in MeOH, 11 in DMSO
I'd appreciate it if you could supply λabs(max) values for the items below.

Task: Recorded λabs(max) for CCC1CN(C(C)C(=O)[O-])C(CC)CN(C(C)C(=O)[O-])C(CC)CN(C(C)C(=O)[O-])C(CC)CN1Cc1cc(C#Cc2c(OC)cc(OC)cc2OC)cc(P(C)(=O)[O-])n1.[Eu+3] (stereo not drawn) , please?
Result: 356

Task: Recorded λabs(max) for CC[C@H]1CN(CC(=O)[O-])[C@@H](CC)CN(Cc2cc(C#Cc3c(OC)cc(OC)cc3OC)cc(P(C)(=O)[O-])n2)[C@@H](CC)CN(CC(=O)[O-])[C@@H](CC)CN1CC(=O)[O-].[Eu+3] , please?
Result: 356

Task: Recorded λabs(max) for COc1cc(OC)c(C#Cc2cc(CN3CCN(CC(=O)[O-])CCN(CC(=O)[O-])CCN(CC(=O)[O-])CC3)nc(P(C)(=O)[O-])c2)c(OC)c1.[Eu+3] , please?
Result: 353
